system: Pseudomonas aeruginosa; test: Antimicrobial activity against Pseudomonas aeruginosa assessed as growth inhibition after 24 hr by broth dilution method; type: functional
Metric: MIC

Answered cases to consult:
> print(dat)
                                   molecule     result
1  O=C1NC(=S)NC(=O)C1=Cc1cn(-c2ccccc2)nc1-c1cc2cc(Br)c(Br)cc2oc1=O  150 µg/mL
2  O=C1NC(=S)NC(=O)C1=Cc1cn(-c2ccccc2)nc1-c1cc2cc(Br)ccc2oc1=O  300 µg/mL
3  O=C1NC(=S)NC(=O)C1=Cc1cn(-c2ccccc2)nc1-c1cc2cc3ccccc3cc2oc1=O  150 µg/mL
4  O=C1NC(=O)C(=Cc2cn(-c3ccccc3)nc2-c2cc3cc(Br)c(Br)cc3oc2=O)C(=O)N1  150 µg/mL
5  O=C1NC(=O)C(=Cc2cn(-c3ccccc3)nc2-c2cc3cc(Cl)c(Cl)cc3oc2=O)C(=O)N1  150 µg/mL

Problem: Determine reported MIC for O=C1NC(=S)NC(=O)C1=Cc1cn(-c2ccccc2)nc1-c1cc2ccccc2oc1=O ; test system: Pseudomonas aeruginosa.
Solution: 300 µg/mL

Problem: Determine reported MIC for O=C1NC(=O)C(=Cc2cn(-c3ccccc3)nc2-c2cc3cc(Cl)ccc3oc2=O)C(=O)N1 ; test system: Pseudomonas aeruginosa.
Solution: 150 µg/mL

Problem: Determine reported MIC for O=C1NC(=O)C(=Cc2cn(-c3ccccc3)nc2-c2cc3cc(Br)ccc3oc2=O)C(=O)N1 ; test system: Pseudomonas aeruginosa.
Solution: 600 µg/mL

Problem: Determine reported MIC for O=C1NC(=O)C(=Cc2cn(-c3ccccc3)nc2-c2cc3ccccc3oc2=O)C(=O)N1 ; test system: Pseudomonas aeruginosa.
Solution: 150 µg/mL

Problem: Determine reported MIC for O=C1NC(=S)NC(=O)C1=Cc1cn(-c2ccccc2)nc1-c1cc2cc(Cl)ccc2oc1=O ; test system: Pseudomonas aeruginosa.
Solution: 150 µg/mL

Problem: Determine reported MIC for O=C1NC(=S)NC(=O)C1=Cc1cn(-c2ccccc2)nc1-c1cc2cc(Cl)c(Cl)cc2oc1=O ; test system: Pseudomonas aeruginosa.
Solution: 300 µg/mL

Problem: Determine reported MIC for O=C1NC(=O)C(=Cc2cn(-c3ccccc3)nc2-c2cc3cc4ccccc4cc3oc2=O)C(=O)N1 ; test system: Pseudomonas aeruginosa.
Solution: 150 µg/mL
